Taken from PubChem BioAssay.

test.details: reversal of MRP1-mediated doxorubicin resistance, pilot screen, H69AR cells, doxorubicin co-treatment (AID 601)
study.conditions: H69AR cells + 2 uM doxorubicin, CellTiter-Glo, 72 h; measured here: viability with 2 uM doxorubicin; at 10 µM; stronger effect = lower value
We'd kindly ask you to apply these viability classes: range 1 (below 80%), range 2 (80% to below 90%), range 3 (90% or more)

                                   molecule    label
0  COc1cccc2sc(NC(=O)c3ccc(S(=O)(=O)N4CCOCC4)cc3)nc12  range 1

[Q] Hey, which category is CC(C)(C)c1cc(NC(=O)c2cc(F)c(F)c(F)c2F)no1 in, do you know?
[A] range 1

[Q] Hey, which category is Cc1onc(-c2ccccc2)c1C(=O)N1CCOCC1 in, do you know?
[A] range 3

[Q] Hey, which category is CCNC(=O)C1CC(=O)N(Cc2ccc3c(c2)OCO3)C(=Nc2ccc(OCC)cc2)S1 (stereo not given) in, do you know?
[A] range 1

[Q] Hey, which category is CCOC(=O)c1sc2nc(N3CCCC3)c3c(c2c1N)CC(C)(C)OC3 in, do you know?
[A] range 1

[Q] Hey, which category is CCOc1ccc(N(CC(=O)NCc2cccc(OC)c2)S(=O)(=O)c2c(C)noc2C)cc1 in, do you know?
[A] range 3

[Q] Hey, which category is CCC1Oc2ccc(C)cc2N(CC(=O)NCCCN2CCCCC2CC)C1=O (stereo not given) in, do you know?
[A] range 3

###

test.details: reversal of MRP1-mediated doxorubicin resistance, pilot screen, H69AR cells, doxorubicin co-treatment (AID 601)
study.conditions: H69AR cells, CellTiter-Glo, 72 h; compound alone cytotoxicity; at 10 µM
// values below are reported viability
Answer with a number only, understood to be in %.

Here are 5 molecules together with their reported answers.
>>> df
                                   molecule  quantity_measured  value_measured
0  COc1ccc(Cl)c(NC(=O)NCCN2CCN(c3ccccc3)CC2)c1          viability            90.4
1                 O=C(CSCc1ccccn1)Nc1ccccc1          viability            94.4
2  O=S(=O)(NCC1CCCO1)c1ccc2c(c1)OCCO2 (stereo unspecified)          viability            97.6
3  COc1cc2c(=O)nc3n(c2cc1OC)C(c1ccccc1)N=C(N)N3 (stereo unspecified)          viability            97.1
4  CCOC(=O)/C=C1\SCC(=O)N1Cc1nnc(-c2ccccc2Br)o1          viability            91.3

Now let's try a different one.
[Q] Quick one: viability for O=C(C1CCCO1)N1CCN(C(c2ccccc2)c2ccccc2)CC1 (stereo unspecified) ?
[A] 96

###

measurement.target: Receptor tyrosine-protein kinase erbB-2 (Homo sapiens) (UniProt P04626)
Sequence (P04626 whole entry, looked up): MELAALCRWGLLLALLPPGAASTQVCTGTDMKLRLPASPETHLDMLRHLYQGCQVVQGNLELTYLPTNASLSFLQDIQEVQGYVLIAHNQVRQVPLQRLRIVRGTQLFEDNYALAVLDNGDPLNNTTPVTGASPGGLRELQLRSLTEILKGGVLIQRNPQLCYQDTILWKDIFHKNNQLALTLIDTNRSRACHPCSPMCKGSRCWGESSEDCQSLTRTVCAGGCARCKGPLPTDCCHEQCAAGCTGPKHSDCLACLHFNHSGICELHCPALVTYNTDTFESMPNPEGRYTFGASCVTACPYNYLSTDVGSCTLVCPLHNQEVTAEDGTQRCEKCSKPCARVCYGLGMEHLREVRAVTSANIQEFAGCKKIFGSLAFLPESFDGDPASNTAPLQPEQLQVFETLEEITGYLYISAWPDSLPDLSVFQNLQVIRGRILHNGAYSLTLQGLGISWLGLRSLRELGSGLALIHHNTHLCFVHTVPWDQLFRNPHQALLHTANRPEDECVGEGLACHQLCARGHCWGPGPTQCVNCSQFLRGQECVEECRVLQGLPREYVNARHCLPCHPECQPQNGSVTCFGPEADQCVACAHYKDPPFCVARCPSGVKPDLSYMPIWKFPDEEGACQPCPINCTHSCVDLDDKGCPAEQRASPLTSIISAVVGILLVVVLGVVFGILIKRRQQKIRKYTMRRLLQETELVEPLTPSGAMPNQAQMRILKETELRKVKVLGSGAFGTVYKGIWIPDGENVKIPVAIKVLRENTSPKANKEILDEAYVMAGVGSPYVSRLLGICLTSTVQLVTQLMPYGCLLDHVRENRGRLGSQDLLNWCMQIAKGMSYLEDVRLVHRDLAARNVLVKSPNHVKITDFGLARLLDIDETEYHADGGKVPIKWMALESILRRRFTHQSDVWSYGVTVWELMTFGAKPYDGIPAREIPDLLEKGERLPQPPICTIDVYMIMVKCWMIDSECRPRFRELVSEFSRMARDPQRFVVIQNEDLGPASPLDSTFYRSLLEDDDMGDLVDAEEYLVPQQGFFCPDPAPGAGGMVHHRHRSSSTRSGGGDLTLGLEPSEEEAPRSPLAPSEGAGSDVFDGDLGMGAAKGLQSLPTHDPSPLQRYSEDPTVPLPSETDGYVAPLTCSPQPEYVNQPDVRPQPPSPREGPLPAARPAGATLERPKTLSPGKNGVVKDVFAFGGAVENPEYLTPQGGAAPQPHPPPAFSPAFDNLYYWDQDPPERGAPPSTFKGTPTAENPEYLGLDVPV
test.details: reducers of endogenous Her2 protein level, primary screen, SKBR3 breast tumor cells, AlphaScreen, ATP viability (AID 461);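 note: lower value means less Her2 protein in the cells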
study.conditions: 18-24 h, at 10 µM, stronger effect = lower value
Define the label as 1 (yes) when Her2 level is strictly less than 90% and as 0 (no) in all remaining cases.

                                   molecule    label
0  Cc1ccc(S(=O)(=O)c2cc3c(=O)n4ccccc4nc3n(CC3CCCO3)c2=N)cc1C (stereo unspecified)  1 (yes)
1  O=C(NC1CCCc2ccccc21)C1CCN(c2nnc(-n3cccc3)s2)CC1 (stereo unspecified)   0 (no)
2  Cn1c(=O)n(CCN2CCOCC2)c(=O)c2c1nc1n2CCN1c1ccccc1   0 (no)
3  Cn1cccc1Cc1nnc(SCC(=O)N2CCOCC2)n1-c1ccc(F)cc1   0 (no)
4               COc1cc(N=c2ssnc2Cl)cc(OC)c1   0 (no)
5  Cc1c(NC(=O)c2coc(=O)c(Br)c2)c(=O)n(-c2ccccc2)n1C  1 (yes)
6    Cc1cc(S(=O)(=O)n2cnc3ccccc32)c(C)cc1Cl   0 (no)
7        Nc1ncnc2oc(-c3ccco3)c(-c3ccco3)c12  1 (yes)

Consider the additional molecule presented here.
[Q] Hi there! Is Her2 level for Cc1cccc(C)c1NC(=O)c1cc(S(=O)(=O)N2CCOCC2)ccc1F below 90%, do you know?
[A] 1 (yes)

###

// values below are reported viability
test.details: reversal of MRP1-mediated doxorubicin resistance, pilot screen, H69AR cells, doxorubicin co-treatment (AID 601)
study.conditions: H69AR cells, CellTiter-Glo, 72 h; compound alone cytotoxicity; at 10 µM
Answer with a number only, understood to be in %.

                                   compound  quantity_measured  unit_label  value_measured
0  Cc1ccc(Cn2ccc(NC(=O)c3cc(-c4cccs4)on3)n2)cc1          viability           %            82.9
1  Oc1ccc(N2CCN(C(c3cccnc3)c3nnnn3Cc3ccccc3)CC2)cc1 (stereo not given)          viability           %            90.2
2  O=C1C(Cl)=C(NCC2CCCO2)C(=O)N1CCc1ccccc1 (stereo not given)          viability           %            87.4
3  CC(C)(C)OC(=O)N1CC=C2C(C#N)=C(N)C(C#N)(C#N)[C@H](c3cccnc3)[C@H]2C1          viability           %            86.3
4  Cc1cc(C(=O)N2CCN(C(c3ccccc3)c3ccccc3)CC2)no1          viability           %            89.1
5  Cc1cnc(NC(=O)CSc2nnc(-c3ccccc3)n2Cc2ccccc2)s1          viability           %            90.2
6  C=CCN1C(=O)C2(/C(=C(\O)c3ccc4c(c3)OCCO4)C(=O)C(=O)N2CCCOC)c2ccccc21 (stereo not given)          viability           %            95.9
7  COc1ccc(C(=O)Nc2ccccc2C(=O)NCCN2CCOCC2)cc1          viability           %            95.8

[Q] Quick one: viability for CC(=O)Nc1ccccc1O ?
[A] 96.1

[Q] Quick one: viability for Cc1cc2c(c(=O)n1C)C(Cc1ccccc1)C(C#N)=C(N)O2 (stereo not given) ?
[A] 95.1

###

test.details: reversal of MRP1-mediated doxorubicin resistance, pilot screen, H69AR cells, doxorubicin co-treatment (AID 601)
study.conditions: H69AR cells + 2 uM doxorubicin, CellTiter-Glo, 72 h; at 10 µM; stronger effect = higher value
Calls of active or inactive are those of the source.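 The calls were made as follows: active = viability loss from added drug above about 55%, and viability with drug at most 40%, in both replicates (limit read from the data, passing the limit was not always enough); inconclusive = both conditions met in only one replicate; inactive = neither replicate meets both conditions.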
quantity.measured: differential viability (reversal)

Here are 5 compounds together with their reported answers.
In [3]: df
Out[3]:
                                   compound                  quantity_measured     value_measured
0          CCOC(=O)Cc1csc(/C(=N/O)C(N)=O)n1  differential viability (reversal)  -4.43% (inactive)
1                CNCCCN1c2ccccc2CCc2ccccc21  differential viability (reversal)   14.6% (inactive)
2  O=C(Cn1c(C(=O)NCC2CCCO2)cc2sccc21)c1ccccc1 (stereo unspecified)  differential viability (reversal)   7.12% (inactive)
3   COc1ccc(S(=O)(=O)Nc2ccc3c(c2)OCO3)cc1Cl  differential viability (reversal)   5.36% (inactive)
4               COc1ccc(C(=O)N2CCOCC2)cc1Br  differential viability (reversal)   5.83% (inactive)

Now let's try a different one.
[Q] Quick one: differential viability (reversal) for CCC(C)NC(=O)CSC1=Nc2ccccc2C2=NC(CC(=O)NCc3ccccc3)C(=O)N12 (stereo unspecified) ?
[A] 13.1% (inactive)

###

test.details: SK-BR-3 cell growth inhibitors, pilot screen, 24 h, human (AID 572);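 note: compound exposure lasted between 18 and 24 h rather than exactly 24 h; 100% = carrier-treated control wells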
study.conditions: SK-BR-3 viability, CellTiter-Glo luminescence, at 10 µM, stronger effect = lower value
quantity.measured: viability (%)
Answer with a number only, understood to be in %.

Here are 5 compounds together with their reported answers.
                                   compound  value_measured
0     Brc1ccc(C2=Nn3c(nnc3-c3ccncc3)SC2)cc1            94.5
1  COc1ccc(C2=NOC(C(=O)Nc3cc(Br)ccc3O)C2)cc1OC (stereo not given)             108
2  CS(=O)(=O)N(CC(=O)Nc1cccc(F)c1)Cc1ccccc1            78.5
3  Cc1sc2nc(SCC(=O)Nc3c(C)n(C)n(-c4ccccc4)c3=O)n(C)c(=O)c2c1C             102
4  C/C(N)=C(/C#N)C(=O)COC(=O)c1cc(S(=O)(=O)N2CCCCC2)ccc1C            88.5

[Q] Quick one: viability for COCCCNC(=O)CCn1c(=O)c2ccccc2n(CC(=O)Nc2ccc(C)cc2C)c1=O ?
[A] 101

[Q] Quick one: viability for CC(=O)c1c(C)[nH]c(C(=O)Nc2c(C)n(C)n(-c3ccccc3)c2=O)c1C ?
[A] 82

[Q] Quick one: viability for OCC(O)CN1CCN(c2ccccc2)CC1 (stereo not given) ?
[A] 119

[Q] Quick one: viability for COc1ccccc1N1CCN(C(=O)CSc2nc3ncnc(N)c3[nH]2)CC1 ?
[A] 110

[Q] Quick one: viability for CCOC(=O)C1/C(=N\O)CC(C)(O)C(C(=O)OCC)C1c1ccc(N(C)C)cc1 (stereo not given) ?
[A] 72

[Q] Quick one: viability for O=S(=O)(Nc1cccnc1)c1ccc2c(c1)OCCO2 ?
[A] 91.5

[Q] Quick one: viability for CCCNC(=O)N1CCN(S(=O)(=O)c2ccc(C)c(C)c2)CC1 ?
[A] 85

[Q] Quick one: viability for CCN(CC)C(=O)C1=C(C)Nc2nnnn2C1c1cccnc1 (stereo not given) ?
[A] 94

[Q] Quick one: viability for Cc1cc(=O)n2[nH]c(-c3ccc(Cl)cc3)cc2n1 ?
[A] 108

[Q] Quick one: viability for Oc1ccc(C=Nc2cccc3ncccc23)c(O)c1 ?
[A] 103

[Q] Quick one: viability for Oc1ccccc1-c1cc(C(F)(F)C(F)F)[nH]n1 ?
[A] 97

[Q] Quick one: viability for c1ccc(-c2n[nH]c3ccccc23)cc1 ?
[A] 118

[Q] Quick one: viability for O=C(c1ccco1)N1CCN(c2nc(C(F)(F)F)nc3c2nnn3Cc2ccccc2)CC1 ?
[A] 133
